biological target: Metabotropic glutamate receptor 5 (Rattus norvegicus) (UniProt P31424); assay: Negative allosteric modulation of rat N-terminal HA-tagged mGlu5 receptor expressed in HEK293 cells co-expressing N-terminal HA-tagged EAAC1 assessed as inhibition of quisqualate-induced inositol phosphate accumulation after 30 mins by HTRF assay relative to fenobam; format: functional, cell-based
Sequence (P31424 21-1203 limits assumed): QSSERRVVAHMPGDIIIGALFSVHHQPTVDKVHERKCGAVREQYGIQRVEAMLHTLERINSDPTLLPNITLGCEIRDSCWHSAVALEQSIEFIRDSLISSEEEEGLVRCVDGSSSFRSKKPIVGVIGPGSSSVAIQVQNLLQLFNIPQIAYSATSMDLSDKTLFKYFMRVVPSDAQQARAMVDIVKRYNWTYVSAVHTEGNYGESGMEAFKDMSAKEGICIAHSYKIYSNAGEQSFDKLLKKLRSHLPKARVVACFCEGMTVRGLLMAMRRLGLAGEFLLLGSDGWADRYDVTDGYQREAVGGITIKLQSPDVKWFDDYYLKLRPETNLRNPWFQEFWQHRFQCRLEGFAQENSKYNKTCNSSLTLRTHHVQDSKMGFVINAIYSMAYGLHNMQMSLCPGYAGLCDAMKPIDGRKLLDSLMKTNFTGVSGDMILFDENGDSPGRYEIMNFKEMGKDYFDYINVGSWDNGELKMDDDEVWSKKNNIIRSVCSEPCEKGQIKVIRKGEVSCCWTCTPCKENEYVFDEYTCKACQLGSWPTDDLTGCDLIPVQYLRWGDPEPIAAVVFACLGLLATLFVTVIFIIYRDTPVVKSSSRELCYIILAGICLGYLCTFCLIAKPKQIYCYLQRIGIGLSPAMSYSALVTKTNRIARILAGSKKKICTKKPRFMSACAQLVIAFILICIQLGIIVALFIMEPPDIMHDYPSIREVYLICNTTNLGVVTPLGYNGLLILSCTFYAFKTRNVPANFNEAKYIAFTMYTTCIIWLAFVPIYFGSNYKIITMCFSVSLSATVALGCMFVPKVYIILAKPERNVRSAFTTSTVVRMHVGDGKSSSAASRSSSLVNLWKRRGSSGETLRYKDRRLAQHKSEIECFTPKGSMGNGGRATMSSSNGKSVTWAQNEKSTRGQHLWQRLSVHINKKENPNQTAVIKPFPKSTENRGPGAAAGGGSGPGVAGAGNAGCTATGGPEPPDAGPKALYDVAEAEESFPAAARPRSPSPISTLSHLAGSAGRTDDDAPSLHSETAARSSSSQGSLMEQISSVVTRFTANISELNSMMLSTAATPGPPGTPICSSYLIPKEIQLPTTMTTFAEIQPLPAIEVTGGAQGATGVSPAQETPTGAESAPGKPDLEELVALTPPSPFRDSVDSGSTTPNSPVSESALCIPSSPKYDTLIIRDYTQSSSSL
Assay endpoint: Efficacy (%)

Example cases with answers are listed next.
Structure smiles string	Efficacy (%)
c1ccc(/N=N/c2ccc(/N=N/c3ccccn3)cc2)nc1	19
c1ccc(/N=N/c2cccc(/N=N/c3ccccn3)c2)nc1	114
C(#Cc1ccccn1)c1ccc(C#Cc2ccccn2)cc1	42
C(#Cc1ccccn1)c1cccc(/N=N/c2ccccn2)c1	115

A. C(#Cc1ccccn1)c1cccc(C#Cc2ccccn2)c1
B. C(#Cc1ccccn1)c1ccc(/N=N\c2ccccn2)cc1
Query block: Recorded Efficacy values differ for A and B ; which one is higher? Choose, then provide that item's label.
Result block: A
(A: 114%, B: 35%)

###

biological target: Metabotropic glutamate receptor 5 (Homo sapiens); experiment: Negative allosteric modulation of mGlu5 receptor (unknown origin)
Sequence (P41594 whole entry): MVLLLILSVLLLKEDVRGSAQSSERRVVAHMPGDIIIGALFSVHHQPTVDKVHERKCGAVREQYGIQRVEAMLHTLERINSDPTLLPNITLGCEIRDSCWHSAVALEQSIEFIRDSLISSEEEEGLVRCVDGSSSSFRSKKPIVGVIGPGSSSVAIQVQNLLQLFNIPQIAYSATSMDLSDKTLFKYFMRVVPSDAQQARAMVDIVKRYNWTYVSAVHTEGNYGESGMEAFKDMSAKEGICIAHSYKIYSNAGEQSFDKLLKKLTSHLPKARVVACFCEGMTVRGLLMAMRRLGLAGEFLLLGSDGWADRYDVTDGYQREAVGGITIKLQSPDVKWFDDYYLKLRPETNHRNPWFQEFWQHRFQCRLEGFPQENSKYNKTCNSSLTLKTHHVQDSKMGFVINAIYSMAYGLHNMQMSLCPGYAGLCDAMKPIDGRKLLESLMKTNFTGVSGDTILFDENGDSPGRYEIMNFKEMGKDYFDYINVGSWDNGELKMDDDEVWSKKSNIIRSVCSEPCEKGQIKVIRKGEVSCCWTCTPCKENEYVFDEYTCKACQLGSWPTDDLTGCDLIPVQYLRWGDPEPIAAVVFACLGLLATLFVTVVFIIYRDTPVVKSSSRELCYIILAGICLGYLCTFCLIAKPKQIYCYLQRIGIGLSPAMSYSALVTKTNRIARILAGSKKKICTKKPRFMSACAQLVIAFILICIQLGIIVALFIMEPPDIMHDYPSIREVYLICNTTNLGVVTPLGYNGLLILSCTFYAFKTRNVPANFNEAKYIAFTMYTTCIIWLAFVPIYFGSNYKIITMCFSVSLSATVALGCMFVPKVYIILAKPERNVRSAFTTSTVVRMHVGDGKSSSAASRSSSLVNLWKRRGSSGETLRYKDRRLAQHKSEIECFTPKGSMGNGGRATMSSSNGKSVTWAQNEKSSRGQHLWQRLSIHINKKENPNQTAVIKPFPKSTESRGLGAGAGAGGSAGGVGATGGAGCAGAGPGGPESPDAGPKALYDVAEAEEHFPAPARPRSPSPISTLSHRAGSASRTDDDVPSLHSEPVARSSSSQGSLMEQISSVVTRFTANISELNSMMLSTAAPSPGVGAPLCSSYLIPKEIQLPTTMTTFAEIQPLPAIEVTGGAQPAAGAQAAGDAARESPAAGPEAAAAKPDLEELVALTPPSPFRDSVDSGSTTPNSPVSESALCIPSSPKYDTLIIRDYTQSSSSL
Assay endpoint: IC50 (nM)
Kindly answer with a numeric value in nM, unit omitted.

Query block: I have this molecule here, "Cc1cc(C)c(N)c(C#Cc2cccc(F)c2)n1" , and I need its recorded IC50.
Result block: 17

###

biological target: Metabotropic glutamate receptor 5 (Rattus norvegicus) (UniProt P31424); assay: Ratio of IC50 for negative allosteric modulation of rat N-terminal HA-tagged mGlu5 receptor expressed in HEK293 cells under dark condition to IC50 for negative allosteric modulation of rat N-terminal HA-tagged mGlu5 receptor expressed in HEK293 cells under violet light illumination; assay type: cell-based
Assay endpoint: Ratio IC50

Structure smiles string	System	Test result
C(#Cc1ccccn1)c1ccc(/N=N\c2ccccn2)cc1	Metabotropic glutamate receptor 5 (Rattus norvegicus) (UniProt P31424)	2.9
C(#Cc1ccccn1)c1cccc(/N=N/c2ccccn2)c1	Metabotropic glutamate receptor 5 (Rattus norvegicus) (UniProt P31424)	1.3

1. c1ccc(/N=N/c2ccc(/N=N/c3ccccn3)cc2)nc1
2. c1ccc(/N=N/c2cccc(/N=N/c3ccccn3)c2)nc1
Query block: Which value of Ratio IC50 is smaller, the one for 1 or the one for 2 ? Answer by quoting the chosen item's label.
Result block: 1
(1: 1.2, 2: 2.2)

###

target: Metabotropic glutamate receptor 5 (Rattus norvegicus) (UniProt P31424); assay: Negative allosteric modulation of rat N-terminal HA-tagged mGlu5 receptor expressed in HEK293 cells co-expressing N-terminal HA-tagged EAAC1 assessed as inhibition of quisqualate-induced inositol phosphate accumulation by measuring difference in efficacy between dark condition and violet light illumination after 30 mins by HTRF assay; assay type: functional, cell-based; set-up: scale not given: the % may be the effect or the level left
Assay endpoint: Activity (%)

Structure smiles string	Test result
C(#Cc1ccccn1)c1ccc(/N=N\c2ccccn2)cc1	15

I. c1ccc(/N=N/c2ccc(/N=N/c3ccccn3)cc2)nc1
II. c1ccc(/N=N/c2cccc(/N=N/c3ccccn3)c2)nc1
III. C(#Cc1ccccn1)c1cccc(/N=N/c2ccccn2)c1
Query block: Please list these molecules in decreasing order of Activity. Ranked list of labels, please, in the requested order.
Result block: II, III, I
(II: 15%, III: 9%, I: -1%)

###

biological target: Metabotropic glutamate receptor 5 (Rattus norvegicus, UniProt P31424); test: Negative allosteric modulation of rat N-terminal HA-tagged mGlu5 receptor expressed in HEK293 cells co-expressing N-terminal HA-tagged EAAC1 assessed as inhibition of quisqualate-induced inositol phosphate accumulation after 30 mins by HTRF assay
Sequence (P31424 whole entry): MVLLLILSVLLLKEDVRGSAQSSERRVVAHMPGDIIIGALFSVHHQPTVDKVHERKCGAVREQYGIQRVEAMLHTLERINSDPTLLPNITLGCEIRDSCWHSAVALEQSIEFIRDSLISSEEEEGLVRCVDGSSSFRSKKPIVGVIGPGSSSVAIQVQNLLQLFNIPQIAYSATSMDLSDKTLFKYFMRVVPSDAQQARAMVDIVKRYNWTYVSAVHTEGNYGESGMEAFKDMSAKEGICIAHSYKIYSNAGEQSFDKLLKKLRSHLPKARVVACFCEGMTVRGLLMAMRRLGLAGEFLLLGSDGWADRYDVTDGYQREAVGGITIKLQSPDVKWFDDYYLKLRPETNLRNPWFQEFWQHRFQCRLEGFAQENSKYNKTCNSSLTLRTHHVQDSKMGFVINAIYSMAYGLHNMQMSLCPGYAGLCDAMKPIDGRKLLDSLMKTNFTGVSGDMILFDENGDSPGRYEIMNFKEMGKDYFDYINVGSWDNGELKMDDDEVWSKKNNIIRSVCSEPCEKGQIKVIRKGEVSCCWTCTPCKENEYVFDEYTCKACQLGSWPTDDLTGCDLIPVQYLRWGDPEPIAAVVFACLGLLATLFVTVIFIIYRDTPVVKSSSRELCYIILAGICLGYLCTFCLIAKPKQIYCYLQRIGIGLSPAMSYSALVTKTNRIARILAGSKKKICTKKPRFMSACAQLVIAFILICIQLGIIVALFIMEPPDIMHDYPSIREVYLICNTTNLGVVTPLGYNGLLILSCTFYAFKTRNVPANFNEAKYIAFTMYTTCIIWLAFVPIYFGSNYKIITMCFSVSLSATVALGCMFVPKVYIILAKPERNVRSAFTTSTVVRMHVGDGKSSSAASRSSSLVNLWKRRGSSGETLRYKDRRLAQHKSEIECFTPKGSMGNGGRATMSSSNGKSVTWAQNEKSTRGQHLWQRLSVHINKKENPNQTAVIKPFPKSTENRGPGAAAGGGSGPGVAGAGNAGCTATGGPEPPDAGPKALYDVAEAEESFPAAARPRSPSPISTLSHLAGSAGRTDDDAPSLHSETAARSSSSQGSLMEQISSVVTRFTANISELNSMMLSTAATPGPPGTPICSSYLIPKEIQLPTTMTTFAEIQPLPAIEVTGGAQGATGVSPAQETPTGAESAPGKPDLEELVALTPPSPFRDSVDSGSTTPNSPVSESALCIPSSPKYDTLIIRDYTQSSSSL
pIC50: −log10 of the molar value.
Assay endpoint: pIC50

Structure smiles string	pIC50
C(#Cc1ccccn1)c1ccc(C#Cc2ccccn2)cc1	5.92

1. C(#Cc1ccccn1)c1cccc(C#Cc2ccccn2)c1
2. C(#Cc1ccccn1)c1ccc(/N=N\c2ccccn2)cc1
3. c1ccc(/N=N/c2cccc(/N=N/c3ccccn3)c2)nc1
4. C(#Cc1ccccn1)c1cccc(/N=N/c2ccccn2)c1
Query block: Sort by pIC50, descending. Form field (ranking): labels in requested order.
Result block: 1, 4, 2, 3
